Data credit: the RNAGym collection of RNA variant scans (doi:10.7554/elife.90254)

self-cleavage by entry:
B1: LINE1-full (parent)
chain: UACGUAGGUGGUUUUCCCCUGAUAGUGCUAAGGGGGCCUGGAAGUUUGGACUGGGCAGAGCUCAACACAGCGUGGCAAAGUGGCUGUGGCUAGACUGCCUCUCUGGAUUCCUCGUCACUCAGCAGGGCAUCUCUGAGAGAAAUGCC

Variants of: B1
Assay: self-cleavage, relative activity (ratio to wild type); higher = more cleavage; in vitro, sequencing; the parent is a self-cleaving ribozyme
Reply with the value as a number alone.

Look over these answered cases.
> print(dat)
   mutation.spec  recorded.number
1       U9C U20C             1.05
2     U87C A121U              0.2
3      C17U U39C             0.92
4      G8U C145U             2.38

For this variant ( G10A U115C ), measured self-cleavage is 1.51

For this variant ( U14C A67C ), measured self-cleavage is 0.13

For this variant ( U104C A121G ), measured self-cleavage is 1.56

For this variant ( A43G U81G ), measured self-cleavage is 1.12
